tested.on: human activated blood coagulation factor X (Homo sapiens)
Construct: purchased Cosmo Bio
Sequence (P00742 235-488 limits assumed): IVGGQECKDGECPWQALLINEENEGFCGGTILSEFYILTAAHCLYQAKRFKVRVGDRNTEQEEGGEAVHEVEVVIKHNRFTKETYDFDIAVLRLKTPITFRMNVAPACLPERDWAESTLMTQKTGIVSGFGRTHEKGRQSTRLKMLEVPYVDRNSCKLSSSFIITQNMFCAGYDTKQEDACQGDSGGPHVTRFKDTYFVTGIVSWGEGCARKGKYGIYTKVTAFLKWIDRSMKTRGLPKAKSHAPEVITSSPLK
Sequence (P00742 41-179 partner limits assumed): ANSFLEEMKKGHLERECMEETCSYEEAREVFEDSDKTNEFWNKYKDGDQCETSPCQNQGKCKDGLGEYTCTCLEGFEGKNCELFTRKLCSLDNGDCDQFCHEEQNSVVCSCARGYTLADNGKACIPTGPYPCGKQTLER
test.details: Measurement of blood coagulation time by human activated blood coagulation factor X (human plasma)
Type: biochemical
experimental.parameters: human plasma, 37° C., 3 minutes incubation; read-out: CT2 (dose which extends the blood coagulation time twice), human activated blood coagulation factor X
Where a name gives a salt, the structure may show the parent alone.
metric.name: IC (2-fold clotting time) (µM)

CC(=N)N1CCC(Oc2ccc(NCc3ccc4ccc(C(=N)N)cc4c3)cc2)CC1 [Example 31, trihydrochloride]	0.09
CCS(=O)(=O)N(Cc1ccc2ccc(C(=N)N)cc2c1)c1ccc(OC2CCN(C(C)=N)CC2)cc1 [Example 28, dihydrochloride]	0.05

(I) COc1ccccc1C(=O)N(Cc1ccc2ccc(C(=N)N)cc2c1)c1ccc(OC2CCN(C(C)=N)CC2)cc1 [Example 33, dihydrochloride]
(II) CC(=N)N1CCC(Oc2ccc(N(Cc3ccc4ccc(C(=N)N)cc4c3)S(=O)(=O)c3ccc(C(=O)O)cc3)cc2)CC1 [Example 74, dihydrochloride]
INPUT: Compare IC (2-fold clotting time): is it lower for I or for II ? Could you answer with the label of the item you picked?
OUTPUT: II
(II: 0.09 µM, I: 0.14 µM)

(P) CCOC(=O)NS(=O)(=O)N(Cc1ccc2ccc(C(=N)N)cc2c1)c1ccc(OC2CCN(C(C)=N)CC2)cc1 [Example 63, dihydrochloride]
(Q) CCOC(=O)C(=O)N(Cc1ccc2ccc(C(=N)N)cc2c1)c1ccc(OC2CCN(C(C)=N)CC2)cc1 [Example 23, dihydrochloride]
INPUT: Thinking about recorded IC (2-fold clotting time) values, which is higher, P or Q ? Write down the label attached to your selection.
OUTPUT: Q
(Q: 0.11 µM, P: 0.04 µM)

(a) CCOC(=O)N(CC(=O)O)S(=O)(=O)N(Cc1ccc2ccc(C(=N)N)cc2c1)c1ccc(OC2CCN(C(C)=N)CC2)cc1 [Example 86, dihydrochloride]
(b) CC(=N)N1CCC(Oc2ccc(N(Cc3ccc4ccc(C(=N)N)cc4c3)C(=O)c3c(F)cccc3F)cc2)CC1 [Example 47, dihydrochloride]
INPUT: // returns a or b , whichever has the lower IC (2-fold clotting time) Please identify the chosen entry by its label.
OUTPUT: a
(a: 0.04 µM, b: 0.13 µM)
